# Assayed Target: UniProt:Q14694
# Sequence (Q14694 whole entry): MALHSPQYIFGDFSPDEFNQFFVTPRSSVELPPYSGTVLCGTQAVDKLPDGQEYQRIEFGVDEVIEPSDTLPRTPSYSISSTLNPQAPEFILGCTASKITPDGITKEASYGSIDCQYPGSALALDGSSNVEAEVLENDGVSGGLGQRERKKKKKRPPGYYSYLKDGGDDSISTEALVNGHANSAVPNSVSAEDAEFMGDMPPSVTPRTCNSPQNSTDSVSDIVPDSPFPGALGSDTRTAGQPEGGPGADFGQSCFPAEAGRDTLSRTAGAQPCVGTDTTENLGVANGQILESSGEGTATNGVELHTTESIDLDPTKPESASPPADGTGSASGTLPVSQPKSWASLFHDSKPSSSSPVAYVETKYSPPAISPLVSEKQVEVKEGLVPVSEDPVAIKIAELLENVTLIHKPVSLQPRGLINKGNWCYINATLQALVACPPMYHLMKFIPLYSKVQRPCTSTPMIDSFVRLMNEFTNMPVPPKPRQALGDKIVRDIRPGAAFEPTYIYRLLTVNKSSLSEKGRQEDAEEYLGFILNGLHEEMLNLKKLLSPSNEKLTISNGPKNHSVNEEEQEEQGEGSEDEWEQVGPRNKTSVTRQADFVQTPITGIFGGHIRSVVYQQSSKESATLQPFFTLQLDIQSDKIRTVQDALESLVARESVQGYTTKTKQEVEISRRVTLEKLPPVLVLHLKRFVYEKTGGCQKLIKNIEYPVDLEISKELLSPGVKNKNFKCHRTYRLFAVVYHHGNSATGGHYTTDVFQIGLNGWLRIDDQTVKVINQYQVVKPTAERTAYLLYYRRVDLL
Reported Metric: IC50

[
  {
    "Compound": "Cc1nc2c(C(O)C(=O)N3CC4=C(C3)CN(S(=O)(=O)c3cnc5c(c3)OCCO5)C4)cccc2o1 (stereo not shown)",
    "Assayed Target": "UniProt:Q14694",
    "Reported Metric": "IC50",
    "Result": "> 33.3 µM"
  }
]

----------
# Assayed Target: USP22 (Homo sapiens, UniProt Q9UPT9)
# Sequence (Q9UPT9 whole entry, species assumed): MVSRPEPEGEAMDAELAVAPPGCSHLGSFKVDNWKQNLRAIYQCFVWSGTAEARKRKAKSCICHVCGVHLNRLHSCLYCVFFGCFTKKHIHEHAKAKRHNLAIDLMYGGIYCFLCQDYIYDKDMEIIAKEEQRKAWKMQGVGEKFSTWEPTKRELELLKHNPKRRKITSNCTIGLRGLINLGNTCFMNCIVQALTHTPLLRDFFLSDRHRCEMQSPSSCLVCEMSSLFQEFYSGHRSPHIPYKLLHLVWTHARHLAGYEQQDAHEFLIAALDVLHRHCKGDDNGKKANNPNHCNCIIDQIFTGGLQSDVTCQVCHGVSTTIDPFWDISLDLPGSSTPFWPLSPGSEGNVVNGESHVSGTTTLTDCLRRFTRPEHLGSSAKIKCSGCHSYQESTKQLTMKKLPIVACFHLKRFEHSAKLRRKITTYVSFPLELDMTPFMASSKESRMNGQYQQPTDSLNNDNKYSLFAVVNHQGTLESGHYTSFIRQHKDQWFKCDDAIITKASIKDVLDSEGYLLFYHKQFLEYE
# Sequence (Q14CW9 whole entry partner, species assumed): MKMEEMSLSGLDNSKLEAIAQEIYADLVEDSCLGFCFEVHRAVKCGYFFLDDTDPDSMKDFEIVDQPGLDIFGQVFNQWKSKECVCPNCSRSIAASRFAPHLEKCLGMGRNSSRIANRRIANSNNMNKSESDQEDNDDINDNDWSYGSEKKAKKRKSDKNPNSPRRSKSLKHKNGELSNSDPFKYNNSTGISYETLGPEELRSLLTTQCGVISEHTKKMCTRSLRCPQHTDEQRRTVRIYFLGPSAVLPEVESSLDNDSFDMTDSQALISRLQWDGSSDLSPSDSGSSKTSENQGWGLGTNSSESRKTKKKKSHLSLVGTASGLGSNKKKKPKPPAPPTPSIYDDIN
# Sequence (Q9NPA8 whole entry partner, species assumed): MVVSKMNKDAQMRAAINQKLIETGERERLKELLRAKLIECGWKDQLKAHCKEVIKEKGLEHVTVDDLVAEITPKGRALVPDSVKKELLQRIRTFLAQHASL
pIC50: −log10 of the molar value.
Reported Metric: pIC50

[
  {
    "Molecule": "Cc1nc2c(C(O)C(=O)N3CC4=C(C3)CN(S(=O)(=O)c3cnc5c(c3)OCCO5)C4)cccc2o1 (stereo not shown) [FT709]",
    "Result": "< 4.57"
  }
]

----------
# Assayed Target: USP25 (Homo sapiens, UniProt Q9UHP3)
# Sequence (Q9UHP3 1-1055): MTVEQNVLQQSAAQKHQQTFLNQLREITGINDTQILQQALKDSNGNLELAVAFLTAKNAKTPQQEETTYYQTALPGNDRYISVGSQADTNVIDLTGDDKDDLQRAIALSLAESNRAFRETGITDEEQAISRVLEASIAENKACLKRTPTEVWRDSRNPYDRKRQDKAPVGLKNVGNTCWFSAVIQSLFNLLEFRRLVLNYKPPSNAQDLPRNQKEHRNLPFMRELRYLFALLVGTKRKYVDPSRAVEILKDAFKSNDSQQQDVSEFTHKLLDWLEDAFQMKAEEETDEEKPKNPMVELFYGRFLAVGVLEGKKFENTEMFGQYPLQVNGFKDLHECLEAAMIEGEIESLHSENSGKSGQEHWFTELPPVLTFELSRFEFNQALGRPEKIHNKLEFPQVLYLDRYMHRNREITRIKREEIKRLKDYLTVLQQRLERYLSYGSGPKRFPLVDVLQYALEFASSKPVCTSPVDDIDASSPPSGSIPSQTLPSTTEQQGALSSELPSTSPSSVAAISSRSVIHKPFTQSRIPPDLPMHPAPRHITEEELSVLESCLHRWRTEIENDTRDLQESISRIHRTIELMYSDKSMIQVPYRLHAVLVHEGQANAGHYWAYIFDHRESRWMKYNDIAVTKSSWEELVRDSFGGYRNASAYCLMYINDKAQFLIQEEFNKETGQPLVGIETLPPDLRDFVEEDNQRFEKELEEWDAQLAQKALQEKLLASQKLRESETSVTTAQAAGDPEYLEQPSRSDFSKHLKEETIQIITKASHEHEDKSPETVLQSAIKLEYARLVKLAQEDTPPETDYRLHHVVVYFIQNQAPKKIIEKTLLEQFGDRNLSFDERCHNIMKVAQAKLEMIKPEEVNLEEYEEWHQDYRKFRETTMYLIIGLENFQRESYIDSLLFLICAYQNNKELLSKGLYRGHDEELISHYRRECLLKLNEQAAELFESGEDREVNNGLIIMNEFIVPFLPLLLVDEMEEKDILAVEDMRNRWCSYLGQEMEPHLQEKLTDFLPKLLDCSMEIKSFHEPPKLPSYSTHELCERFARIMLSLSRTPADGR
pIC50: −log10 of the molar value.

[
  {
    "Compound": "Cc1nc2c(C(O)C(=O)N3CC4=C(C3)CN(S(=O)(=O)c3cnc5c(c3)OCCO5)C4)cccc2o1 (stereo not shown)",
    "pIC50": "< 4.57"
  }
]
